- Tested on: Caenorhabditis elegans N2
- EXPERIMENTAL_PROTOCOL: mean nematode size ln(EXT) after 48 h, plate-adjusted (DMSO control set to 6) (ln(EXT), control-adjusted); higher = larger nematodes / less growth inhibition
- ASSAY_CONDITIONS: 0.5 µM; exposure time 48 h
Can you tell me mean nematode size ln(EXT) (ln) for the items I'm about to list?
Answer with a bare number; do not write a unit.

For reference, reported mean nematode size ln(EXT) (ln) for CCCN(CCC)N=O stands at 5.88

For reference, reported mean nematode size ln(EXT) (ln) for CC[C@H](C)[C@@H](C(=O)O)n1sc2ccccc2c1=O stands at 5.91

For reference, reported mean nematode size ln(EXT) (ln) for C1N2CN3CN1CN(C2)C3 stands at 5.69

For reference, reported mean nematode size ln(EXT) (ln) for CSC(=O)c1cccc2nnsc12 stands at 5.65

For reference, reported mean nematode size ln(EXT) (ln) for O=P1(N(CCCl)CCCl)NCCCO1 (stereo unspecified) [Cytoxan hydrate] stands at 5.87

For reference, reported mean nematode size ln(EXT) (ln) for Cc1ccc(C(C)C)c(O)c1 stands at 5.92

For reference, reported mean nematode size ln(EXT) (ln) for Nc1ccccc1N stands at 5.84

For reference, reported mean nematode size ln(EXT) (ln) for C1=CCCC=CCCC=CCC1 stands at 5.89

For reference, reported mean nematode size ln(EXT) (ln) for O=C(O)CC(O)(CC(=O)O)C(=O)O stands at 5.85

For reference, reported mean nematode size ln(EXT) (ln) for O=C([O-])c1ccccc1.[Na+] [Sodium benzoate] stands at 5.83

For reference, reported mean nematode size ln(EXT) (ln) for C#CCOS(=O)OC1CCCCC1Oc1ccc(C(C)(C)C)cc1 (stereo unspecified) stands at 5.95

* * *

Can you tell me mean nematode size ln(EXT) (ln) for the items I'm about to list?
- System: Caenorhabditis elegans N2
- EXPERIMENTAL_PROTOCOL: mean nematode size ln(EXT) after 48 h, plate-adjusted (DMSO control set to 6) (ln(EXT), control-adjusted); higher = larger nematodes / less growth inhibition
- ASSAY_CONDITIONS: 100 µM; exposure time 48 h
Counter-ions that a name gives are not always drawn.
Answer with a bare number; do not write a unit.

For reference, reported mean nematode size ln(EXT) (ln) for CC1=C(C)S(=O)(=O)CCS1(=O)=O stands at 6

For reference, reported mean nematode size ln(EXT) (ln) for Cc1cnc(C2=NC(=O)C(C)(C(C)C)N2)c(C(=O)O)c1 (stereo unspecified) stands at 4.31

For reference, reported mean nematode size ln(EXT) (ln) for C/C(=N\C#N)N(C)Cc1ccc(Cl)nc1 stands at 6.02

For reference, reported mean nematode size ln(EXT) (ln) for Cn1cnc([N+](=O)[O-])c1Sc1ncnc2[nH]cnc12 stands at 5.84

For reference, reported mean nematode size ln(EXT) (ln) for CCCCCCCCCCCCCCC stands at 5.87

For reference, reported mean nematode size ln(EXT) (ln) for CCC1(c2ccccc2)C(=O)NC(=O)NC1=O [Phenobarbital sodium salt] stands at 5.91

For reference, reported mean nematode size ln(EXT) (ln) for CN1CCN(c2ccccc2/C=C2\SCCN(c3ccc(Cl)c(Cl)c3)C2=O)CC1 stands at 4.27

For reference, reported mean nematode size ln(EXT) (ln) for COCC(C)N(C(=O)CCl)c1c(C)csc1C (stereo unspecified) stands at 6.56

For reference, reported mean nematode size ln(EXT) (ln) for O=C(O)C(O)C(O)C(=O)O (stereo unspecified) stands at 5.82

For reference, reported mean nematode size ln(EXT) (ln) for O=C(O)c1ccc([N+](=O)[O-])cc1 stands at 5.91

For reference, reported mean nematode size ln(EXT) (ln) for Cc1ccc(C)c(O)c1C stands at 5.9

For reference, reported mean nematode size ln(EXT) (ln) for C=CC(=C)CCC=C(C)C stands at 5.71

For reference, reported mean nematode size ln(EXT) (ln) for COc1cc(OC)nc(NC(=O)NS(=O)(=O)c2ncccc2OCC(F)(F)F)n1 [Trifloxysulfuron-sodium] stands at 5.97

For reference, reported mean nematode size ln(EXT) (ln) for NC(N)=O stands at 5.86

For reference, reported mean nematode size ln(EXT) (ln) for CC(C)C1(C)N=C(c2ncccc2C(=O)O)NC1=O (stereo unspecified) stands at 5.84

For reference, reported mean nematode size ln(EXT) (ln) for C=CC(=O)OCCCCCC(C)C [Isooctyl acrylate] stands at 5.68

For reference, reported mean nematode size ln(EXT) (ln) for CCC[CH2][Sn]([Cl])([CH2]CCC)[CH2]CCC [Tributyltin chloride] stands at 3.97

For reference, reported mean nematode size ln(EXT) (ln) for ClC1=C(Cl)C2(Cl)C3C4CC(C5OC45)C3C1(Cl)C2(Cl)Cl (stereo unspecified) stands at 3.9

For reference, reported mean nematode size ln(EXT) (ln) for CC(Oc1ccc(Cl)cc1Cl)C(=O)O (stereo unspecified) stands at 5.88

For reference, reported mean nematode size ln(EXT) (ln) for CC[C@H](C)C(=O)O[C@H]1C[C@H](O)C=C2C=C[C@H](C)[C@H](CC[C@@H](O)C[C@@H](O)CC(=O)O)[C@H]21 [Pravastatin sodium] stands at 5.79

For reference, reported mean nematode size ln(EXT) (ln) for CCCCCCCCCC stands at 5.83

* * *

Can you tell me mean nematode size ln(EXT) (ln) for the items I'm about to list?
- Tested on: Caenorhabditis elegans N2
- EXPERIMENTAL_PROTOCOL: mean nematode size ln(EXT) after 48 h, plate-adjusted (DMSO control set to 6) (ln(EXT), control-adjusted); higher = larger nematodes / less growth inhibition
- ASSAY_CONDITIONS: 0.5 µM; exposure time 48 h
Answer with a bare number; do not write a unit.

For reference, reported mean nematode size ln(EXT) (ln) for Nc1nc(=S)c2[nH]cnc2[nH]1 stands at 5.81

For reference, reported mean nematode size ln(EXT) (ln) for CCCCCCCCCCCCCCO stands at 5.94

For reference, reported mean nematode size ln(EXT) (ln) for C#C[C@]1(O)CC[C@H]2[C@@H]3CCc4cc(O)ccc4[C@H]3CC[C@@]21C stands at 6

For reference, reported mean nematode size ln(EXT) (ln) for COC(=O)C(C)Oc1ccc(Oc2ccc(Cl)cc2Cl)cc1 (stereo not given) stands at 6.06

For reference, reported mean nematode size ln(EXT) (ln) for CCC(C)(CC)c1cc(NC(=O)c2c(OC)cccc2OC)on1 stands at 5.88

* * *

- Tested on: Caenorhabditis elegans N2
- EXPERIMENTAL_PROTOCOL: mean nematode size ln(EXT) after 48 h, plate-adjusted (DMSO control set to 6) (ln(EXT), control-adjusted); higher = larger nematodes / less growth inhibition
- ASSAY_CONDITIONS: 10 µM; exposure time 48 h
ATTRIBUTE_MEASURED: mean nematode size ln(EXT) (ln)
Answer with a bare number; do not write a unit.

For reference, reported mean nematode size ln(EXT) (ln) for CN(C)C(=O)NC1(c2ccccc2)CCN(CC[C@@]2(c3ccc(F)c(F)c3)CN(C(=O)c3ccccc3)CCO2)CC1 stands at 5.8

For reference, reported mean nematode size ln(EXT) (ln) for Cn1cnc2c1c(=O)[nH]c(=O)n2C [Theobromine] stands at 6.03

For reference, reported mean nematode size ln(EXT) (ln) for Nc1ccc(Oc2ccc(N)cc2)cc1 [4,4'-Oxydianiline] stands at 5.83

For reference, reported mean nematode size ln(EXT) (ln) for O=[N+]([O-])c1ccc(O)cc1 [Sodium p-nitrophenolate] stands at 5.98

For reference, reported mean nematode size ln(EXT) (ln) for COC(=O)CSc1cc(/N=c2\sc(=O)n3n2CCCC3)c(F)cc1Cl [Fluthiacet-methyl] stands at 5.96

For reference, reported mean nematode size ln(EXT) (ln) for O=C([O-])c1ccccc1.[Na+] [Sodium benzoate] stands at 5.83

For reference, reported mean nematode size ln(EXT) (ln) for Clc1cccc(C(Cl)(Cl)Cl)n1 [Nitrapyrin] stands at 5.47

* * *

- System: Caenorhabditis elegans N2
- EXPERIMENTAL_PROTOCOL: mean nematode size ln(EXT) after 48 h, plate-adjusted (DMSO control set to 6) (ln(EXT), control-adjusted); higher = larger nematodes / less growth inhibition
- ASSAY_CONDITIONS: 0.5 µM; exposure time 48 h
Counter-ions that a name gives are not always drawn.
Can you tell me mean nematode size ln(EXT) (ln) for the items I'm about to list?
Answer with a bare number; do not write a unit.

For reference, reported mean nematode size ln(EXT) (ln) for CCCN(CCC)C(=O)SCC [EPTC] stands at 6.11

For reference, reported mean nematode size ln(EXT) (ln) for CC1=C(/C=C/C(C)=C/C=C/C(C)=C/CO)C(C)(C)CCC1 [Retinol] stands at 5.92

For reference, reported mean nematode size ln(EXT) (ln) for CCOC(=O)CC(O)(CC(=O)OCC)C(=O)OCC [Triethyl citrate] stands at 6.01

For reference, reported mean nematode size ln(EXT) (ln) for O=C1O[C@H]([C@H](O)CO)C([O-])=C1O.[Na+] [Sodium erythorbate] stands at 5.96

For reference, reported mean nematode size ln(EXT) (ln) for CCOP(=S)(OCC)Oc1nc(Cl)c(Cl)cc1Cl [Chlorpyrifos] stands at 5.55
